# test_system: human PAH with the R408W mutation (Homo sapiens, UniProt P00439, R408W)
# Construct: expressed in transfected cells
# Sequence (P00439 1-452 R408W): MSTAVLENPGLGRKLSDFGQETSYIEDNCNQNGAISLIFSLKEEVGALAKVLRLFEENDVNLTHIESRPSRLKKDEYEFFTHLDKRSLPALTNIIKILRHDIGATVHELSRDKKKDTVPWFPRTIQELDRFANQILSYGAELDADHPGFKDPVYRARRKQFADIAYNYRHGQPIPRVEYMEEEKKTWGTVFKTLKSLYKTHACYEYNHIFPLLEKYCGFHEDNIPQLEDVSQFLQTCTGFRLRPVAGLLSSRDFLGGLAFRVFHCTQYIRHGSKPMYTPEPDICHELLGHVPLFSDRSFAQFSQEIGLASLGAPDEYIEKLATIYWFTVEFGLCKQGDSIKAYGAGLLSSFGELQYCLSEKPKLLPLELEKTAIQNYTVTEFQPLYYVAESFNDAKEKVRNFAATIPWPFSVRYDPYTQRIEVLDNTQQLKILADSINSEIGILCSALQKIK
# assay_info: Cell Based Phenylalanine Flux Assay;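 also: after compound treatment, cells received sepiapterin plus isotope-labelled Phenylalanine for 4 hours, then labelled Tyrosine in the medium was quantified, 10-point 2-fold dilution series run in duplicate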
# measurement_conditions: A375 cells expressing human PAH R408W; 24 hrs compound incubation; 13C-Tyrosine by LC-MS; average where tested multiple times; read-out: AC50
Quick reference for AC50 among some compounds

O=C(c1nnc(-c2cnccn2)o1)N1CCc2[nH]cnc2[C@@H]1c1cc2c(OC(F)F)cccn2n1 [Example 2449]: > 5000 nM

Now, please, on to the next compound.
Consider the compound CC(C)c1cccn2nc([C@H]3c4nc[nH]c4CCN3C(=O)c3nnc(-c4ncccc4F)o3)cc12 [Example 1907] and give its measured AC50. > 5000 nM
